- Test system: fibrin- and LPS-induced microglia activation
- measurement description: cells
- Type: cell-based, rat
- reported conditions: quadrant by fibrin and LPS inhibition in HTS of 1907 compounds

| compound | Quadrant (FIG. 5b) |
| --- | --- |
| CN1[C@@H](CC(=O)c2ccccc2)CCC[C@H]1C[C@H](O)c1ccccc1 | Q4 |
| CN(Cc1cnc2nc(N)nc(N)c2n1)c1ccc(C(=O)N[C@@H](CCC(=O)O)C(=O)O)cc1 [Methotrexate] | Q4 |
| C#C[C@]1(O)CC[C@H]2[C@@H]3CCc4cc(O)ccc4[C@H]3CC[C@@]21C [Ethinyl estradiol, reference compound] | Q3 |
| O=C(c1cccnc1)N1CCOCC1 | Q4 |

---

Measured Fibrin % cell toxicity by item
- System: primary rat microglia;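 further: share of dead cells sized under 150 µm2 at 10 µM in fibrin-stimulated microglia HTS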
- reported conditions: rat
Write it as a number; the unit % goes unstated.

Here are 3 compounds together with their reported answers.
| compound | Fibrin % cell toxicity, % |
| --- | --- |
| Oc1ncnc2[nH]ncc12 | 1 |
| CN1C2CCCC1CC(NC(=O)c1nn(C)c3ccccc13)C2 (centres unmarked) [Granisetron] | 1 |
| Nc1c2c(nc3ccccc13)CCCC2 | 1 |

Hey, primary rat microglia data for CO/N=C(\C(=O)N[C@@H]1C(=O)N2C(C(=O)O)=C(CSc3nc(=O)c(=O)[nH]n3C)CS[C@H]12)c1csc(N)n1 : Fibrin % cell toxicity came out at 1

Record CCCCCCCCCCCCCCCC(=O)OC[C@H](O)[C@H]1OC(=O)C(O)=C1O [Ascorbyl Palmitate] / primary rat microglia, Fibrin % cell toxicity recorded as 1

Observed Fibrin % cell toxicity on primary rat microglia, entry COc1ccc(CN(CCN(C)C)c2ccccn2)cc1 , equals 0

So the reported Fibrin % cell toxicity for COC1=CC(=O)C[C@@H](C)[C@]12Oc1c(Cl)c(OC)cc(OC)c1C2=O , on primary rat microglia, turned out to be 1

Item CC(=O)OCC(=O)[C@@]1(O)[C@H](OC(C)=O)C[C@H]2[C@@H]3CCC4=CC(=O)C=C[C@]4(C)[C@@]3(F)[C@@H](O)C[C@@]21C [Triamcinolone diacetate, reference compound] was tested on primary rat microglia; the reported Fibrin % cell toxicity is 2

---

- Tested on: fibrin-induced microglia activation
- measurement description: Image-based assay of fibrin-induced microglia activation (HTS and dose response)
- Format: cell-based, rat
- reported conditions: Rattus norvegicus, Microglia, Table 6; read-out: Fibrin IC50 (uM) (Suppl. Table 7)
endpoint name: IC50 (µM)
API: value field is a number in µM; no unit string.

| compound | target or test system | unit label | quantitative readout |
| --- | --- | --- | --- |
| C=C1C[C@H]2[C@@H]3C=C(C)C4=CC(=O)CC[C@]4(C)[C@H]3CC[C@]2(C)[C@@]1(OC(C)=O)C(C)=O [Melengestrol acetate, reference compound] | fibrin-induced microglia activation | µM | 0.07 |
| CCCC(=O)O[C@]1(C(=O)CO)CC[C@H]2[C@@H]3CCC4=CC(=O)CC[C@]4(C)[C@H]3[C@@H](O)C[C@@]21C [Hydrocortisone butyrate, reference compound] | fibrin-induced microglia activation | µM | 0.02 |
| CC(=O)O[C@@]12CO[C@@H]1C[C@H](O)[C@@]1(C)C(=O)[C@H](O)C3=C(C)[C@@H](OC(=O)[C@H](O)[C@@H](NC(=O)OC(C)(C)C)c4ccccc4)C[C@@](O)([C@@H](OC(=O)c4ccccc4)[C@H]21)C3(C)C [Docetaxel, reference compound] | fibrin-induced microglia activation | µM | 0.002 |

Lab note: CCOC(=O)O[C@]1(C(=O)COC(=O)CC)CC[C@H]2[C@@H]3CCC4=CC(=O)C=C[C@]4(C)[C@H]3[C@@H](O)C[C@@]21C [Prednicarbate, reference compound] gave IC50 of 0.002
